System: OVCAR-3
protocol: NCI tumour cell line growth inhibition, 48 h
Activity calls are given as the source filed them. Rule as the data show it: active = GI50 up to about 1.1 µM and inactive = higher.
result.type: GI50

Which measured GI50 value corresponds to `NC(=O)c1nnc2c(F)cccc2c1N` ?
> 100 µM (inactive)

Which measured GI50 value corresponds to C[N+](C)(C)CC1Cc2ccccc2C1=O (stereo not drawn) ?
> 5.81 µM (inactive)

Which measured GI50 value corresponds to COc1ccc(C2CC(c3c(O)ccc4ccccc34)=NN2)cc1OC (stereo not drawn) ?
4.46 µM (inactive)

====

System: HCT-15
Would you kindly list log10 of GI50 for each of these molecules?
In plain terms, each number is the log10 of measured GI50 in µM.

Which measured log10 of GI50 value corresponds to `O=C(c1cccs1)N(C(=S)OCCOc1ccccc1)c1ccccc1` ?
1.44

Which measured log10 of GI50 value corresponds to OC1CN2Cc3cc4c(cc3[C@]13C=C[C@@H](O)CC23)OCO4 (some centres not stated) ?
1.48

Which measured log10 of GI50 value corresponds to O=C1C(Cl)=C(Cl)C(Cl)(Cl)C(Cl)C1(Cl)Cl (configuration not stated) ?
1.47

Which measured log10 of GI50 value corresponds to `COc1cc2c3cc1Oc1c(OC)c(OC)cc4c1[C@@H](Cc1ccc(O)c(c1)Oc1ccc(cc1)C[C@@H]3N(C)CC2)N(C)CC4.c1ccccc1` ?
1.09

Which measured log10 of GI50 value corresponds to `O=c1oc2ccccc2c2c1Sc1ccccc1N2` ?
1.56

Which measured log10 of GI50 value corresponds to `C=C(C)[C@@H]1CCC2=C[C@H](OC2=O)[C@@]2(C)C[C@@H]2C(=O)/C=C(/C)C(=O)[C@H]1OC(C)=O` ?
1.10

Which measured log10 of GI50 value corresponds to `CN(C)Cc1cc(C(=O)/C=C/c2ccc(O)cc2)cc(CN(C)C)c1O` ?
1.65

Which measured log10 of GI50 value corresponds to `O=C1c2ccccc2-c2[nH]c3cn[nH]c(=O)c3c21` ?
1.92

Which measured log10 of GI50 value corresponds to Cc1cccc(C(C)C)c1NC(=O)CC1Sc2ccccc2NC1=O (configuration not stated) ?
1.85

Which measured log10 of GI50 value corresponds to `COc1c(C)c2c(c(O)c1C/C=C(\C)CCC(=O)O)C(=O)OC2` ?
-0.37

Which measured log10 of GI50 value corresponds to `O=C1C=C(Br)c2c(Br)sc(Br)c21` ?
0.75

====

Would you kindly list GI50 for each of these compounds?
System: SK-MEL-28
protocol: NCI tumour cell line growth inhibition, 48 h
Activity calls are given as the source filed them. No stated cut-off is given here; in the data, active = GI50 up to about 1.1 µM and inactive = higher.

Which measured GI50 value corresponds to `CN(C)C(=S)N1C(=S)N(c2ccccc2)C(=N/c2ccccc2)/C1=N\c1ccccc1` ?
> 100 µM (inactive)

Which measured GI50 value corresponds to `c1cc2nnc1SCCSCCCSCCS2` ?
29.2 µM (inactive)

Which measured GI50 value corresponds to `N#Cc1nc(-c2ccccn2)c(-c2ccccn2)nc1C#N` ?
3.96 µM (inactive)

Which measured GI50 value corresponds to `O=C(c1ccccc1)n1c2ccc(Br)cc2c2nc3ccccc3nc21` ?
> 100 µM (inactive)

Which measured GI50 value corresponds to c1ccc2c(c1)SP1Sc3ccccc3P21 (configuration not stated) ?
> 90.4 µM (inactive)

Which measured GI50 value corresponds to `Nn1c(Cc2ccc([N+](=O)[O-])cc2)n[nH]c1=O` ?
> 100 µM (inactive)

Which measured GI50 value corresponds to `C[C@@]1(CCCCCCCCCCc2ccccc2)C[C@@]2(C)OC(=O)C[C@H]2OO1` ?
2.07 µM (inactive)

Which measured GI50 value corresponds to CCCCCCCCC/C=C1/CC(CO)(COC(=O)C2CCCCC2)OC1=O (configuration not stated) ?
> 100 µM (inactive)

Which measured GI50 value corresponds to `O=C(/C=C(\N=P(c1ccccc1)(c1ccccc1)c1ccccc1)C(F)(F)C(F)(F)C(F)(F)C(F)(F)C(F)(F)C(F)(F)C(F)(F)F)c1ccccc1` ?
> 100 µM (inactive)

Which measured GI50 value corresponds to COc1ccc(/C=C2\CCC(CNc3ccc(OC)cc3)C2=O)cc1 (configuration not stated) ?
18.9 µM (inactive)

Which measured GI50 value corresponds to `CCOC(=O)N1C/C(=C\c2ccccc2)C(=O)/C(=C/c2ccccc2)C1` ?
2.39 µM (inactive)

Which measured GI50 value corresponds to `C[n+]1c(-c2ccc(/C=N/Nc3n[nH]c(=S)n3N/N=C/c3ccc(-c4cn5ccccc5[n+]4C)cc3)cc2)cn2ccccc21` ?
> 100 µM (inactive)

Which measured GI50 value corresponds to `O=c1c2cccnc2ncn1CCCN1CCCC1` ?
> 10 µM (inactive)

Which measured GI50 value corresponds to `Cc1nc([N+](=O)[O-])cn1-c1nc2ccccn2c1[N+](=O)[O-]` ?
> 100 µM (inactive)

Which measured GI50 value corresponds to `CCCCNC(=S)N/C=C1\C(=O)Nc2ccccc2C1=O` ?
> 10 µM (inactive)

Which measured GI50 value corresponds to `CN(C)c1ccc(/C=C2\CNC/C(=C\c3ccc(N(C)C)cc3)C2=O)cc1` ?
22.8 µM (inactive)

Which measured GI50 value corresponds to `NCCCCN(CCCN)C(=O)OCc1ccccc1` ?
> 100 µM (inactive)

Which measured GI50 value corresponds to `CCCCCCCCCOC(=O)c1cnc(Cl)cn1` ?
24 µM (inactive)

Which measured GI50 value corresponds to C=C(COC(C)=O)CC(OC(C)=O)c1ccccc1 (configuration not stated) ?
> 100 µM (inactive)

Which measured GI50 value corresponds to `O=C1O/C(=C(/Cl)c2c3ccccc3cc3ccccc23)c2ccccc21` ?
40.7 µM (inactive)

Which measured GI50 value corresponds to COC(=O)C(C(=O)C(=O)Nc1c(C)cccc1C)c1cnc2ccccc2n1 (configuration not stated) ?
> 100 µM (inactive)

Which measured GI50 value corresponds to CCOC(=O)C12OC(CCC1=O)C(C(=O)OC)=C2C(=O)OC (configuration not stated) ?
> 10 µM (inactive)
